Reference source for all entries: paper PMC10786891

- TESTED_TARGET: T1, EsCas13d, nuclease-dead (Eubacterium siraeum, UniProt B0MS50, R295A;H300A;R849A;H854A)
- T1 sequence: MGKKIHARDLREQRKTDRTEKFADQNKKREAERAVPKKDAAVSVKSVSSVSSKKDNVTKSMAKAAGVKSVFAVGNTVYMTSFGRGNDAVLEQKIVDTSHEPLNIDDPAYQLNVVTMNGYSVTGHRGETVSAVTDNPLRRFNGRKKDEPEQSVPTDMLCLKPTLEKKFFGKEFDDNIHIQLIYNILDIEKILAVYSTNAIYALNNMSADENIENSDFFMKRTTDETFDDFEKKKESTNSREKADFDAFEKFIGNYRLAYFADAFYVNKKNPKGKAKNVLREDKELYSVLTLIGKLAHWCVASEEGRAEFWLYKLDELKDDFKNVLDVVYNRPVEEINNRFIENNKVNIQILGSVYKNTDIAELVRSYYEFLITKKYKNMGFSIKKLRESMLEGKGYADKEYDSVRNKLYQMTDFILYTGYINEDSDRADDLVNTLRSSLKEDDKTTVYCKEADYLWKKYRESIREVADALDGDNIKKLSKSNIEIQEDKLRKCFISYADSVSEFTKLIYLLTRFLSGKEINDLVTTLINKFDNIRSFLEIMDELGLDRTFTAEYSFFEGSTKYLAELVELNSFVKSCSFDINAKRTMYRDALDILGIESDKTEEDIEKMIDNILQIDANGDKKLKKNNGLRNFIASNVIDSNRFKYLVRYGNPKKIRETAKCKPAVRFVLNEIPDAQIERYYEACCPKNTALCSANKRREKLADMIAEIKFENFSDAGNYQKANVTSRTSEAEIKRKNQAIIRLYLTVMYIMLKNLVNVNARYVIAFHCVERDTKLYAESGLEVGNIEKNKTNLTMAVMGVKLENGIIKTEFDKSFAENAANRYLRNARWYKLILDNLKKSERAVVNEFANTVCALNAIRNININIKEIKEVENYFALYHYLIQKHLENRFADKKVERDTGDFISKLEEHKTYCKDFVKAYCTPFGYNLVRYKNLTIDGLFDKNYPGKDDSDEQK
- ASSAY_COMMENT: crRNA (strand 1, pre-loaded); Mg2+; 40 mM Tris-HCl pH 7.5, 150 mM NaCl, 6 mM MgCl2, 1 mM DTT, 0.1% Tween-20, 0.2 mg/ml BSA; 25 C; 10 min per concentration, then washed
- ASSAY_CONTEXT: tags: His6-TwinStrep-SUMO cleaved; N-terminal SNAP kept (SNAP-Surface 488); label: 3' end held by stalled T7 RNA polymerase
QUANTITY_KIND: Kd (nM)
One number for each entry, in nM.

target 1 MT 5'PFS CUG 3'PFS ACA (mixed) RNA 1: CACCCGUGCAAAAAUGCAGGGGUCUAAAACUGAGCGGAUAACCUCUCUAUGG RNA 2: GGGAAUGGAUCCACAUCUACGAAUUCCUGCCAUAGAGAGGUUAUCCGCUCAACAAGAUCGGAAGAGCACACGU    8.25
target 2 MT 5'PFS AUG 3'PFS CUA (mixed) RNA 1: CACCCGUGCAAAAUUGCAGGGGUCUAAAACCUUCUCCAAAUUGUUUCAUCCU RNA 2: GGGAAUGGAUCCACAUCUACGAAUUCAUGAGGAUGAAACAAUUUGGAGAAGCUAAGAUCGGAAGAGCACACGU    7.5
target 3 C1G,U10A (mixed) RNA 1: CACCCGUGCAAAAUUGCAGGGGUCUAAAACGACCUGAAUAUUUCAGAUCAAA RNA 2: GGGAAUGGAUCCACAUCUACGAAUUCGUUUUUGAUCUGAAAAAUUCAGGUGUGCAGAUCGGAAGAGCACACGU    43
target 1 insA 3' of 11,insG 3' of 1 (mixed) RNA 1: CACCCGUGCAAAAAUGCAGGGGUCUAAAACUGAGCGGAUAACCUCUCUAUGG RNA 2: GGGAAUGGAUCCACAUCUACGAAUUCGUACCAUAGAGAGGUAUAUCCGCUCAGCCGAGAUCGGAAGAGCACACGU    20.8
target 1 U19A,C21A (mixed) RNA 1: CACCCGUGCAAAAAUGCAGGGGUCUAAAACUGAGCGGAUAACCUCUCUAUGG RNA 2: GGGAAUGGAUCCACAUCUACGAAUUCGUACAAAAGAGAGGUUAUCCGCUCACCGAGAUCGGAAGAGCACACGU    46

For each of the binders below, note its Kd.
1. target 1 insG 3' of 20,insG 3' of 20 (mixed) RNA 1: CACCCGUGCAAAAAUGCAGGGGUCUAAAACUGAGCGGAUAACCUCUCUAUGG RNA 2: GGGAAUGGAUCCACAUCUACGAAUUCGUACCAGGUAGAGAGGUUAUCCGCUCACCGAGAUCGGAAGAGCACACGU
2. target 1 C4U,U11C (mixed) RNA 1: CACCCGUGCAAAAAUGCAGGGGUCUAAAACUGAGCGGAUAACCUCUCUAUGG RNA 2: GGGAAUGGAUCCACAUCUACGAAUUCGUACCAUAGAGAGGCUAUCCGUUCACCGAGAUCGGAAGAGCACACGU
3. target 1 MT 5'PFS CUG 3'PFS AUA (mixed) RNA 1: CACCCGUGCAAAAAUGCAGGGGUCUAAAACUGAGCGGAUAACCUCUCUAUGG RNA 2: GGGAAUGGAUCCACAUCUACGAAUUCCUGCCAUAGAGAGGUUAUCCGCUCAAUAAGAUCGGAAGAGCACACGU
4. target 1 insA 3' of 17,insG 3' of 16 (mixed) RNA 1: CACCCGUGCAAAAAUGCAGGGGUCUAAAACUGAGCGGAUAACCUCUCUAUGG RNA 2: GGGAAUGGAUCCACAUCUACGAAUUCGUACCAUAGAAGGAGGUUAUCCGCUCACCGAGAUCGGAAGAGCACACGU
5. target 3 U8C (mixed) RNA 1: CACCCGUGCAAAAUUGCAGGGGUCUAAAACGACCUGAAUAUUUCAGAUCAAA RNA 2: GGGAAUGGAUCCACAUCUACGAAUUCGUUUUUGAUCUGAAAUACUCAGGUCUGCAGAUCGGAAGAGCACACGU

[A]
[60, 27, 5.05, 18.7, 30.4]
